- Subject of test: Casein kinase I isoform alpha (Homo sapiens)
- Condition description: at 0.1 µM
What inhibition was measured for each of the following?
Number only, in %; omit the unit.

Fc1ccc(-c2c(-c3ccncc3)nc3n2CCS3)cc1 yielded inhibition of 2.51

The compound identified as Cc1ccc(C(=O)NC2CCC2)cc1-c1ccc(C(=O)NCC2CC2)cc1 registered its inhibition at 3.36

For reference, reported inhibition for NC(=O)c1ccc(Oc2nccc(-c3c(-c4ccc(F)cc4)ncn3C3CCNCC3)n2)cc1 stands at 5.63

// recorded inhibition for C/C(Nc1ccc(S(N)(=O)=O)cc1)=C1/C(=O)Nc2ccccc21 : 2.64

Field inhibition (entry Fc1ccc(-c2ncn(C3CCNCC3)c2-c2ccnc(Oc3ccc(Oc4ccccc4)cc3)n2)cc1 ) reads 10.7

Note to self: inhibition recorded for NCc1ccc(-n2c(-c3nonc3N)nc3cnccc32)cc1 was 3.56

Lookup result for O=C(Nc1n[nH]c2cc(-c3cc(F)ccc3F)ccc12)C1CC1 ; measured inhibition: 0.79

Short answer for CCc1nccc2c1nc(-c1nonc1N)n2CC : inhibition was 3.39

The compound listed as C#Cc1cccc(Nc2ncnc3ccc(OCCCCNCCS(C)(=O)=O)cc23)c1 has a reported inhibition of 2.51

Given item NS(=O)(=O)c1ccc(N/N=C2\C(=O)Nc3ccc(-c4cnco4)cc32)cc1 , the value recorded as its inhibition is 0.46

====

- Test system: Proto-oncogene tyrosine-protein kinase receptor Ret (Homo sapiens), P07949 [Y791F]
- Sequence (P07949 whole entry Y791F): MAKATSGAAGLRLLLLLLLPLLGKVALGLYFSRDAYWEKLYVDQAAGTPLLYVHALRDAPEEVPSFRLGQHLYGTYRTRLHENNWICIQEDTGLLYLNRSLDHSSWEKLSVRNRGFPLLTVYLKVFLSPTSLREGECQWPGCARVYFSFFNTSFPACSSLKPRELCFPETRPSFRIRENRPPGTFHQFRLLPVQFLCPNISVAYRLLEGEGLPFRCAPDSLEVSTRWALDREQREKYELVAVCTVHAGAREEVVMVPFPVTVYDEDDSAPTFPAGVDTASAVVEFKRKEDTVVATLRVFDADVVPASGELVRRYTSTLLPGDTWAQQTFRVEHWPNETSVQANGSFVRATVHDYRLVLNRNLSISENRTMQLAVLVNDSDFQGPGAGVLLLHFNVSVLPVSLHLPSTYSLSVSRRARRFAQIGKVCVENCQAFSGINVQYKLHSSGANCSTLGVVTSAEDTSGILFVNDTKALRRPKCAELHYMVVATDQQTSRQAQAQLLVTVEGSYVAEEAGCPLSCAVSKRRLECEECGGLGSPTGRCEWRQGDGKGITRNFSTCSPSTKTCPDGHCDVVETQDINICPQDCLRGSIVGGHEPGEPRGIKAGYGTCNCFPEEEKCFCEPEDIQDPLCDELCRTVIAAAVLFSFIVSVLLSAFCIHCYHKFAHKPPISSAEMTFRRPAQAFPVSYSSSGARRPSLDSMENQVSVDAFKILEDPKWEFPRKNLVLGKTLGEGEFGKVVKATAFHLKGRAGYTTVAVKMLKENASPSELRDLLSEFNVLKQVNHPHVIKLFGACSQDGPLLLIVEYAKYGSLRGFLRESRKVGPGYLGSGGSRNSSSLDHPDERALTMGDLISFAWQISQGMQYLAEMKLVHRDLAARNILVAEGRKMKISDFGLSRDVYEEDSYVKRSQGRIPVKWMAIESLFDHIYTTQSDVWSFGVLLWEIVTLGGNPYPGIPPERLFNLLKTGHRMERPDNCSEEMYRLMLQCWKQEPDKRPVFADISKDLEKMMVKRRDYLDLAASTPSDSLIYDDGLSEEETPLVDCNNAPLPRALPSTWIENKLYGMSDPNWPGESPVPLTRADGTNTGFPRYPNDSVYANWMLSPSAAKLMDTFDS
- Condition description: at 0.1 µM
Can you tell me inhibition for the items I'm about to list?
The answer should read as a number with its unit following.

The reported inhibition of the compound CCc1nccc2c1nc(-c1nonc1N)n2CC was 3.64%

Entry O=C1Nc2ccccc2/C1=C/Nc1ccc(-n2cncn2)cc1 , inhibition reported as 12.9%

Memo: COc1ccc2cc(-c3c(-c4ccncc4)nc(-c4ccc(S(C)(=O)=O)cc4C)n3C)ccc2c1 , reported inhibition: 3.67%

Record summary for O=C(Nc1n[nH]c2nc(-c3ccco3)ccc12)C1CC1 : reported inhibition = 4.94%

Lab note: measured inhibition of Cc1ccc(C(=O)NC(C)C)cc1-c1ccc(C(=O)NCC2CC2)cc1 was -0.71%

Lookup result for COc1ccc2ncn(-c3cc(O[C@H](C)c4ccccc4Cl)c(C(N)=O)s3)c2c1 ; measured inhibition: 5.2%

Lab note: measured inhibition of CCC(=O)Nc1ccc(C)c(-c2ccc(C(=O)NCC3CC3)cc2)c1 was 4.76%

The compound listed as COc1cc2ncn(-c3cc(OCCc4ccccc4)c(C(N)=O)s3)c2cc1OC has a reported inhibition of 6.66%

So, NC(=O)c1ccc(Oc2nccc(-c3c(-c4ccc(F)cc4)ncn3C3CCNCC3)n2)cc1 ? Its inhibition was 3.11%

Reported inhibition for NS(=O)(=O)c1ccc(Nc2cc(-c3ccc(O)c(F)c3)n[nH]2)cc1 was 14.1%

Quick note, inhibition for CS(=O)(=O)CCNCc1ccc(-c2ccc3ncnc(Nc4ccc(OCc5ccccc5)c(Br)c4)c3c2)o1 landed at 9.28%

Record NC(=O)c1cc(-c2ccncc2)cc(-c2ccccc2)c1N , field inhibition: 6.34%

inhibition for Fc1ccc(-c2ncn(C3CCNCC3)c2-c2ccnc(Oc3ccc4c(c3)OCO4)n2)cc1 is 14.5%

What the record says about FC(F)(F)c1cccc(Nc2nccc(-c3cnn4nc(-c5ccccc5)ccc34)n2)c1 : inhibition is 3.91%

Briefly, inhibition measured for NS(=O)(=O)c1ccc(N/N=C2\C(=O)Nc3ccc(-c4cnco4)cc32)cc1 : 8.71%

Please fill in: inhibition reported for Fc1ccc(-c2ncn(C3CCNCC3)c2-c2ccnc(Oc3ccc(Oc4ccccc4)cc3)n2)cc1 = 15.6%

CCS(=O)(=O)c1ccc(OC)c(Nc2ncc(-c3ccccc3Cl)o2)c1 has a reported inhibition of 2.23%

// inhibition value for COc1ccc(-c2ccc3c(NC(=O)C4CC4)n[nH]c3n2)cc1 : 0.39%

CN(C)CCCNc1nccc(-c2c(-c3ccc(F)cc3)nn3cc(C(F)(F)F)ccc23)n1 has a reported inhibition of 10.9%

For reference, reported inhibition for Cc1ccc(NC(=O)c2ccoc2)cc1-c1ccc(C(=O)NCC2CC2)cc1 stands at 1.45%

For C[C@@H](Oc1cc(-n2cnc3ccc(OCC4CCN(C)CC4)cc32)sc1C(N)=O)c1ccccc1Cl the compound record lists inhibition as 8.22%
